Tested on: stromelycin gene
Assay: IL-1 induced stromelycin gene expression in chondrocytes
Assay type: cell-based, calf
Conditions: 1×10^−5 M
Excerpt: This assay measures the levels of RNA for the two metalloproteinases, collagenase and stromelysin. Over-expression of these genes results in excessive synthesis and secretion of these two enzymes from articular chondrocytes and may represent part of the pathophysiology of rheumatoid arthritis. […] Primary chondrocyte culture was freshly isolated from calf cartilage. […] The experimental results on X-ray films were scanned and analyzed with HP ScanJet.
readout_label: IL-1 induced stromelycin gene expression

State the recorded IL-1 induced stromelycin gene expression for this entry: COc1cc([C@@H]2c3cc4c(cc3[C@@H](O[C@@H]3O[C@@H]5CO[C@@H](C)O[C@H]5[C@H](O)[C@H]3O)[C@H]3COC(=O)[C@H]23)OCO4)cc(OC)c1O [etoposide] inhibited

State the recorded IL-1 induced stromelycin gene expression for this entry: CC1=CC(=O)c2ccccc2C1=O inhibited

State the recorded IL-1 induced stromelycin gene expression for this entry: COc1cccc2c1C(=O)c1c(O)c3c(c(O)c1C2=O)C[C@@](O)(C(=O)CO)C[C@@H]3O[C@H]1C[C@H](N)[C@H](O)[C@H](C)O1 completely inhibited

State the recorded IL-1 induced stromelycin gene expression for this entry: CC1=CC(=O)c2c(O)cccc2C1=O completely inhibited

These measurements were taken from patent US8883856B2.
